System: A549
Experiment: NCI tumour cell line growth inhibition, 48 h
Active and inactive are the calls of the source. Rule as the data show it: active = GI50 up to about 1.1 µM and inactive = higher.
READOUT_NAME: GI50

The cases that follow already have their GI50 on record.
Cc1cccc(C)c1NC(=O)CCc1nnc2s/c(=C\c3ccc(Cl)cc3)c(=O)n12    > 100 µM (inactive)
COc1cc(-c2n[nH]cc2CCCC(=O)Nc2ccccc2[N+](=O)[O-])ccc1O    73.8 µM (inactive)

// moving on: another record for GI50
Answer with the recorded GI50 for the compound listed here: CC(C)c1ccccc1NC(=O)CCc1n[nH]c(=S)o1
99.8 µM (inactive)

====

System: HOP-92
Experiment: NCI tumour cell line growth inhibition, 48 h
The source made the active and inactive calls. Rule as the data show it: active = GI50 up to about 1.1 µM and inactive = higher.
Log the outcome using a class from active, inactive

Cc1[nH]c2ccccc2c1/C=N/c1ccc(/N=C/c2c(C)[nH]c3ccccc23)cc1    inactive
CCCC(=O)Nc1cc(/C=C/C(=O)N2C[C@@H]3C[C@]34C2=CC(=O)c2[nH]cc(C)c24)n(C)c1    active
Nc1nc(Cl)nc2c1ncn2C1CC(O)C(CO)O1 (stereo not drawn)    inactive
O=c1cc(-c2ccc(O)cc2)oc2cc(O[C@@H]3O[C@H](CO)[C@@H](O)[C@H](O)[C@H]3O)cc(O)c12 [APIGETRIN]    inactive
CCCNCCCCC(NC(C)=O)C(=O)NCc1ccccc1 (stereo not drawn)    inactive
CCOC(=O)C12CCCC1(O)N(NC(=O)OC(C)(C)C)C(C)=C2C(=O)OC (stereo not drawn)    inactive
COC(=O)C1=Nc2c(C)nn(-c3ccccc3)c2N=C(c2ccccc2)C1    inactive
O=C1C2CC(Cl)C(SSC3CC4C(=O)N(SC(Cl)(Cl)C(Cl)Cl)C(=O)C4CC3Cl)CC2C(=O)N1SC(Cl)(Cl)C(Cl)Cl (stereo not drawn)    inactive

What did this assay record as the result for CC1=NN(C(=O)CC(=O)Nc2ccc(C)cc2)C(=O)C1/N=N\c1ccc(S(=O)(=O)c2ccc(/N=N/C3C(=O)N(C(=O)CC(=O)Nc4ccc(C)cc4)N=C3C)cc2)cc1 (stereo not drawn) ?
inactive

What did this assay record as the result for CCc1nc(N)nc(N)c1-c1ccc(NCCc2ccccc2)c([N+](=O)[O-])c1 ?
inactive

What did this assay record as the result for COC1C=COC2(C)Oc3c(C)c(O)c4c(O)c(c(C5SCCS5)c(O)c4c3C2=O)NC(=O)/C(C)=C\C=CC(C)C(O)C(C)C(O)C(C)C(OC(C)=O)C1C (stereo not drawn) ?
inactive

What did this assay record as the result for CN1N(c2ccccc2)C(=O)C2=NC=C(C#N)C(=N)C21C (stereo not drawn) ?
inactive

What did this assay record as the result for O=c1c(C(c2ccc(OCc3ccccc3)cc2)c2c(O)oc3ccccc3c2=O)c(O)oc2ccccc12 ?
inactive

What did this assay record as the result for CN(C)CCn1c2c3ccccc3ccc2c2oc(=O)c3ccccc3c21 ?
inactive

What did this assay record as the result for O=S(=O)(N/N=C/c1ccc(Cl)cc1Cl)c1ccccc1 ?
inactive

====

Test system: MOLT-4
Assay: NCI tumour cell line growth inhibition, 48 h
Active and inactive are the calls of the source. Rule as the data show it: active = GI50 up to about 1.1 µM and inactive = higher.
READOUT_NAME: GI50

The cases that follow already have their GI50 on record.
N#Cc1ccccc1OCCOc1ccccc1C#N    > 100 µM (inactive)
c1ccc2c[n+](Cc3ccnc4ccccc34)ccc2c1    > 100 µM (inactive)
COc1ccc2nc(-n3c(/C=C/c4ccccc4O)nc4ccccc4c3=O)sc2c1    32.9 µM (inactive)
CNC(=O)C1(C#N)C(c2ccccc2)C(C#N)(C(=O)NC)C1c1ccccc1 (stereo unspecified)    > 100 µM (inactive)
COC(OC)[C@@H]1OC[C@H](n2cnc3c(N)ncnc32)[C@H]1O    > 100 µM (inactive)

Answer with the recorded GI50 for the compound listed here: CCOP(=O)(OCC)/C(C#N)=C/c1[nH]cnc1C
> 100 µM (inactive)

Answer with the recorded GI50 for the compound listed here: CN(C)CCn1c2c3ccccc3ccc2c2oc(=O)c3ccccc3c21
2.62 µM (inactive)

Answer with the recorded GI50 for the compound listed here: O=Cc1ccccc1CCn1c(=O)c2cc3c(=O)n(CCc4ccccc4C=O)c(=O)c3cc2c1=O
> 100 µM (inactive)

From: ChEMBL document CHEMBL1201862
